experiment: mn = molality of the nth substance listed, in mol/kg; settings: 298.15 K; 100 kPa; Liquid; Vibrating tube method; m1 = 0.005
READOUT_TYPE: mass density (kg/m3)

mass density lookup needed for [Cl][Er]([Cl])[Cl] [erbium trichloride] + O , thanks.
998.051

Then what about the compound [Cl][Dy]([Cl])[Cl] [dysprosium(III) chloride] + O ?
998.006

Can you handle O=C(O)CC(O)(CC(=O)O)C(=O)O [citric acid] + O next?
997.455

Now give it for [Cl][Yb]([Cl])[Cl] [ytterbium trichloride] + O too.
998.121
